Data origin, for the record: patent US20240247080A1

TARGET_OF_ASSAY: T1, GIP receptor (human (printed as hGIPR), UniProt P48546 22-466)
T1 sequence (looked up): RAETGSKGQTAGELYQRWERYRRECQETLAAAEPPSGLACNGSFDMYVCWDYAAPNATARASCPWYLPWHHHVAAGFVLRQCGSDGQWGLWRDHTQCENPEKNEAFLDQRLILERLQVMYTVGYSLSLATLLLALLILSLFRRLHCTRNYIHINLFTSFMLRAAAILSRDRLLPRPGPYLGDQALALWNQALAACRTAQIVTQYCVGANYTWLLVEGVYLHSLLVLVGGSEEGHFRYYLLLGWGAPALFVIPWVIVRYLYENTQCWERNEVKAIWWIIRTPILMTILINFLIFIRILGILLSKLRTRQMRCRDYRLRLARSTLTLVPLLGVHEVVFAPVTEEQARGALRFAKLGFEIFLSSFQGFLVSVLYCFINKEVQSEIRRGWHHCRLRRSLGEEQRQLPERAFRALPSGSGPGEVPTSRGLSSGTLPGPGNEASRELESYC
METHOD_NOTES: cell-based or functional assay
Starred links: 1 amine or outer side, 2 acyl side, 3 side chain; linkers in the order of their positions; H or OH if unused. Non-standard residues stand in square brackets, D forms with d. Groups on a side chain read outwards from the residue. No end group written: not given here. *: point of attachment. C20 diacid = O=C(O)CCCCCCCCCCCCCCCCCCC(=O)*; C18 diacid = O=C(O)CCCCCCCCCCCCCCCCC(=O)*; γGlu = O=C(O)[C@H](CCC(=O)[*:2])N[*:1]; εLys = N[C@@H](CCCCN[*:1])C(=O)[*:2]; Aib = CC(C)(N)C(=O)O
MEASURED_PROPERTY: EC50 hGIPR 100% hP (CreLuc) (nM)
Please state the figure in nM; there is no need to write the unit.

Specify reported EC50 hGIPR 100% hP (CreLuc) for the binder shown: Y[Aib]EGTFTSDYSI[Aib]LEKQAQ[Aib]AFVQWLIK([εLys-γGlu-γGlu-γGlu-γGlu-γGlu-γGlu-γGlu-C20 diacid])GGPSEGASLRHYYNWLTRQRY-NH2 (also: TFA salt) [Compound 224] 1.35

Specify reported EC50 hGIPR 100% hP (CreLuc) for the binder shown: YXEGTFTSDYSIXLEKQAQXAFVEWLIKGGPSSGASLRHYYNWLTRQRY (Aib at 2, 13, 20; K28 side chain carries C20DA-gGlu-gGlu-gGlu-gGlu-gGlu-gGlu-eLys; C-terminal amide) [Compound 221] 0.92

Specify reported EC50 hGIPR 100% hP (CreLuc) for the binder shown: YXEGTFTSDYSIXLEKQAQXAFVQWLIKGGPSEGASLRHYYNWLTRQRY (Aib at 2, 13, 20; K28 side chain carries C20DA-gGlu-gGlu-gGlu-gGlu-gGlu-OEG-OEG; C-terminal amide) [Compound 228] 1.52

Specify reported EC50 hGIPR 100% hP (CreLuc) for the binder shown: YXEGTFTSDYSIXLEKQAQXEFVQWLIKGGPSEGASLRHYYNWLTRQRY (Aib at 2, 13, 20; K28 side chain carries C18DA-E-E-E-E-E (SEQ ID NO: 636); C-terminal amide) [Compound 176] 3.37

Specify reported EC50 hGIPR 100% hP (CreLuc) for the binder shown: Y[Aib]EGTFTSDYSI[Aib]LEKQAQ[Aib]EFVQWLIK([Glu-Glu-Glu-Glu-Glu-Glu-C18 diacid])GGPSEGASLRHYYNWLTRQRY-NH2 (also: TFA salt) [Compound 179] 3.34
